# IC50 annotations
ASSAYED_SYSTEM: UniProt O14965
EXPERIMENT_SUMMARY: Aurora A kinase assay (mobility shift assay)
Type: biochemical
Supply the numeric figure in nM, leaving out any unit text.

# COMPOUND_STRUCTURE_STRING, IC50 (nM)
measured = [
    ("Cc1cc(Nc2nc(C[C@@]3(C(=O)O)CCN(Cc4cccc(Cl)c4F)[C@H](C)C3)cc(Cl)c2F)n[nH]1", 0.76),
    ("Cc1cc(Nc2nc(C[C@@]3(C(=O)O)CCN(Cc4cccc(Cl)c4F)[C@H](C)C3)cnc2C)n[nH]1", 1.5),
    ("Cc1cc(Nc2nc(CC3(C(=O)O)CCN(Cc4cccc(Cl)c4F)CC3)cc(C)c2F)n[nH]1", 0.61),
]

Below: the item to evaluate.
Report IC50 for Cc1cc(Nc2ccc(F)c(C[C@@]3(C(=O)O)CCN(C(=O)Cc4cccc(Cl)c4F)[C@H](C)C3)n2)n[nH]1 please.
0.85

---

ASSAYED_SYSTEM: Aurora A (Homo sapiens (Human), UniProt O14965)
Sequence (O14965 whole entry): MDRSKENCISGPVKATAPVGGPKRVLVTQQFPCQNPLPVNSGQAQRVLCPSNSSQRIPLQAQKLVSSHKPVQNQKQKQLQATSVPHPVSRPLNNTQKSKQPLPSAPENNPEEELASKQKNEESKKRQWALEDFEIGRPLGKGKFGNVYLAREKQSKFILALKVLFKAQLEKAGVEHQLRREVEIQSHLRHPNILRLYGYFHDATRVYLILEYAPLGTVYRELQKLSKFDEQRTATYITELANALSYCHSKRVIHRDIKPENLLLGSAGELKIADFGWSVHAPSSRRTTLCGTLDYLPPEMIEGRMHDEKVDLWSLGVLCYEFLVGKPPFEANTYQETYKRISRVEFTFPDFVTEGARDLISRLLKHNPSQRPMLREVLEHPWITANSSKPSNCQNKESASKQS
EXPERIMENT_SUMMARY: Aurora A kinase assay (mobility shift assay)
Format: biochemical
# IC50 annotations
Supply the numeric figure in nM, leaving out any unit text.

Some solved cases for reference:
# COMPOUND_STRUCTURE_STRING, IC50 [nM]
data = [
    ("Cc1cc(Nc2ccc(F)c(C[C@@]3(C(=O)O)CCN(Cc4c(Cl)cccc4Cl)[C@H](C)C3)n2)n[nH]1", 3.2),
    ("Cc1cc(Nc2cccc(C[C@@]3(C(=O)O)CCN(Cc4cccc(Cl)c4F)[C@H](C)C3)n2)n[nH]1", 1.4),
    ("Cc1cc(Nc2ccc(F)c(CC3(C(=O)O)CCN(Cc4cccc(Cl)c4F)CC3)n2)n[nH]1", 1.3),
]

Report IC50 for Cc1cc(Nc2nc(C[C@@]3(C(=O)O)CCN(Cc4cccc(Cl)c4F)[C@H](C)C3)c(F)cc2C)[nH]n1 please.
1.9

---

ASSAYED_SYSTEM: UniProt:Q96GD4
Sequence (Q96GD4 whole entry): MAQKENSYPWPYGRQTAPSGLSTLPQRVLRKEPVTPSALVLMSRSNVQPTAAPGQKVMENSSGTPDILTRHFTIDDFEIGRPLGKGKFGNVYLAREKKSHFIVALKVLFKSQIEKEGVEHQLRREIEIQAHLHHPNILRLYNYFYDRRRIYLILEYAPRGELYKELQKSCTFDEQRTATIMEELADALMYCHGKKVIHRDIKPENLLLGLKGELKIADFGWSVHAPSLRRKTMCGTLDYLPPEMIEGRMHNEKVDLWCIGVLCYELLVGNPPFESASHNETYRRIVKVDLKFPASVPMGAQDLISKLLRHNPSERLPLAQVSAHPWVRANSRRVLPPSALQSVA
EXPERIMENT_SUMMARY: Aurora B kinase assay (mobility shift assay)
Assay type: biochemical
COND: ratio of Aurora B IC50 to Aurora A IC50
# IC50 Ratio Aur B/Aur A annotations
Please give the numeric answer without any surrounding text.

# COMPOUND, IC50 Ratio Aur B/Aur A
data = [
    ("Cc1cc(Nc2ccc(F)c(C[C@@]3(C(=O)O)CCN(C(=O)Cc4cccc(Cl)c4F)[C@H](C)C3)n2)n[nH]1", 986),
    ("Cc1cc(Nc2nc(CC3(C(=O)O)CCN(Cc4cccc(Cl)c4F)CC3)cc(C)c2F)n[nH]1", 2036),
    ("Cc1cc(Nc2ccc(F)c(C[C@@]3(C(=O)O)CCN(Cc4ccc(F)c(Cl)c4F)[C@H](C)C3)n2)n[nH]1", 622),
]

Report IC50 Ratio Aur B/Aur A for CCc1cc(Nc2cc(C)[nH]n2)nc(CC2(C(=O)O)CCN(Cc3cccc(Cl)c3F)CC2)c1F please.
716

Report IC50 Ratio Aur B/Aur A for Cc1cc(Nc2cc(C)c(F)c(C[C@@]3(C(=O)O)CCN(Cc4cccc(Cl)c4Cl)[C@H](C)C3)n2)n[nH]1 please.
562

Report IC50 Ratio Aur B/Aur A for Cc1cc(Nc2cc(C)c(F)c(CC3(C(=O)O)CCN(Cc4cccc(F)c4F)CC3)n2)n[nH]1 please.
1285

Report IC50 Ratio Aur B/Aur A for Cc1cc(Nc2cncc(C[C@@]3(C(=O)O)CCN(Cc4cccc(Cl)c4F)[C@H](C)C3)n2)n[nH]1 (stereo in doubt) please.
523

Report IC50 Ratio Aur B/Aur A for Cc1cc(Nc2cc(Cl)c(F)c(C[C@@]3(C(=O)O)CCN(Cc4cccc(Cl)c4F)[C@H](C)C3)n2)n[nH]1 please.
582

Report IC50 Ratio Aur B/Aur A for Cc1cc(Nc2cc(S(C)(=O)=O)c(F)c(C[C@@]3(C(=O)O)CCN(Cc4cccc(Cl)c4F)[C@H](C)C3)n2)n[nH]1 please.
1353

Report IC50 Ratio Aur B/Aur A for Cc1cc(Nc2ccc(F)c(C[C@@]3(C(=O)O)CCN(Cc4cc(Cl)c(F)c(Cl)c4)[C@H](C)C3)n2)n[nH]1 please.
613

Report IC50 Ratio Aur B/Aur A for Cc1cc(Nc2nc(CC3(C(=O)O)CCN(Cc4cccc(Cl)c4F)CC3)c(F)cc2F)n[nH]1 please.
4393

Report IC50 Ratio Aur B/Aur A for Cc1cc(Nc2ccc(F)c(C[C@@]3(C(=O)O)CCN(Cc4cccc(C(F)(F)F)c4)[C@H](C)C3)n2)n[nH]1 please.
1789

Report IC50 Ratio Aur B/Aur A for Cc1[nH]nc(Nc2ccc(F)c(CC3(C(=O)O)CCN(Cc4cccc(Cl)c4F)C(C)C3)n2)c1C (stereo not shown) please.
804

The measurements presented in this section are drawn from patent US11384066B1.
